FYI, the data here is from PubChem BioAssay.

experiment: Restrictive medium S. cerevisiae growth inhibition, OD615, pilot screen of yeast lifespan reduction project, restrictive growth control (AID 706); conditions: OD615, 48 h, at 10 µM, hits give high values;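 note: modified DeaD lifespan yeast strain shifted to restrictive glucose medium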
ASSAY_READOUT: growth inhibition (%)
Record the value in %, omitting the unit from your answer.

Guide cases for growth inhibition, answers given:
- Cn1nc(-c2ccc(Cl)cc2)c2cc(C(=O)N3CCN(c4ccccn4)CC3)sc21: 28.7
- CCOc1ccc(OCC)c(Nc2cc(C)nc3ncnn23)c1: 7.09
- Cc1oc2c(c1C(=O)NC(Cc1c[nH]c3ccccc13)C(=O)O)CCCC2 (configuration not stated): -5.62

Which value of growth inhibition has been reported for `c1ccc(N2CCOCC2)c(Nc2nc3ccccc3n3cnnc23)c1` in the records? -1.25

Can you share its growth inhibition? I mean this compound: `Cc1c(NC(=O)OCCSc2nc(N(C)C)nc(N(C)C)n2)sc(=S)n1C` 3.13

What value of growth inhibition has been reported for the following compound? `Cc1cc(Nc2cccc(C)c2C)n2ncnc2n1` -1.32

Looking for the measured growth inhibition of CCC1Oc2ccc(C)cc2N(CC(=O)N2CCN(c3ccc(F)cc3)CC2)C1=O (configuration not stated) , can you help? 11.1

Entry CC(C)N1C(=O)CCC1C(=O)NCc1ccccc1Cl (configuration not stated) : reported growth inhibition = ? -6.72

Recorded growth inhibition of CCCn1c(CN2CCCCC2CC)nc2c1c(=O)n(C)c(=O)n2C (configuration not stated) , please. -17.3

Request the reported growth inhibition associated with `COc1ccc(OC)c2c1sc(=NC(=O)CN1C(=O)CCC1=O)n2C` 5.91

Any idea what its growth inhibition is? The compound is CCC(Sc1nc2ccccc2[nH]1)C(=O)Nc1cc(C)on1 (configuration not stated) -17.9

Entry under review: `O=c1oc(-c2cccs2)nc2sc3c(c12)CCCCC3` . Reported growth inhibition? -6.44
